molecular target: EphA2 (h) (Homo sapiens, UniProt P29317); assay: biochemical
Sequence (P29317 24-976): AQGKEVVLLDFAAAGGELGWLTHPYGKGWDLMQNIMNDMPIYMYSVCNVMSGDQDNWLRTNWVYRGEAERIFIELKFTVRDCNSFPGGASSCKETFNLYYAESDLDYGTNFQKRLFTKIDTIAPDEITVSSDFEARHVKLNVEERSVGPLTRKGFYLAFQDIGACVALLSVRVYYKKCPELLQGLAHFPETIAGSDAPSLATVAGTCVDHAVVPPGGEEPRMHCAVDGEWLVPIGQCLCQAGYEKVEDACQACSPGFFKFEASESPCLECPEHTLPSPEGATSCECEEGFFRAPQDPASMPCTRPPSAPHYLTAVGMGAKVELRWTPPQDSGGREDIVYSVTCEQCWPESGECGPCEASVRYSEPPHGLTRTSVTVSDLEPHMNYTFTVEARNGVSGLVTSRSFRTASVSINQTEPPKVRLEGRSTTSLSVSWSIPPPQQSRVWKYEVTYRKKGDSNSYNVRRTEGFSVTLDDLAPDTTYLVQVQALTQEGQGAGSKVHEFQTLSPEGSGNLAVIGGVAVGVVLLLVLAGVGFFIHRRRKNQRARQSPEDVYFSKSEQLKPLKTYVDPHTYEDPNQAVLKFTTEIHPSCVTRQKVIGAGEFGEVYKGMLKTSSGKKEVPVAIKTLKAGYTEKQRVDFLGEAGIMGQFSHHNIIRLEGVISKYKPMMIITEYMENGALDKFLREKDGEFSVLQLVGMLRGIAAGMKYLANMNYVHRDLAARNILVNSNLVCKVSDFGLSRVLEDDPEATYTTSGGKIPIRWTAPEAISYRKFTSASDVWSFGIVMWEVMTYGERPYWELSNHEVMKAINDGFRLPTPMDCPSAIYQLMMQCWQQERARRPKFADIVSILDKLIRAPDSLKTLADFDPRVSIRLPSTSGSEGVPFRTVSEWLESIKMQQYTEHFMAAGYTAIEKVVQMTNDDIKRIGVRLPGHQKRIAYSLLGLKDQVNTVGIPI
Where no end group is shown, it is not given here.
QUANTITY_MEASURED: IC50 (µM)

> print(dat)
                            seq.text                             target.system  quantity.measured  readout.number
1  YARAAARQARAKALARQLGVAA [MMI-0100]  EphA2 (h) (Homo sapiens, UniProt P29317)               IC50             181

###

molecular target: Pim-1 (h) (Homo sapiens); test: biochemical
Sequence (P11309 whole entry): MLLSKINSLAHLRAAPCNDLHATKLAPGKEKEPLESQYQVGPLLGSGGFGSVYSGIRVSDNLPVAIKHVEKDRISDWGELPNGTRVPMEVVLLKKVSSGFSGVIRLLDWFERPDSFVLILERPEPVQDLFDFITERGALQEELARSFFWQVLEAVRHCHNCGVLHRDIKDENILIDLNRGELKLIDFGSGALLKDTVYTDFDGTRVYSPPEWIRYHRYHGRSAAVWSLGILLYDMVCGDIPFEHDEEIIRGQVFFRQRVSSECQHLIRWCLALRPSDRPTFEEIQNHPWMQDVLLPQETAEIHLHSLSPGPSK
pIC50: −log10 of the molar value. Where no end group is shown, it is not given here.
QUANTITY_MEASURED: pIC50

> print(dat)
                            seq.text  readout.number
1  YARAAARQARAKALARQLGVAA [MMI-0100]            4.14
